- targetOfAssay: Insulin-like growth factor 1 receptor (Homo sapiens, UniProt P08069)
- Sequence (P08069 31-736 limits assumed): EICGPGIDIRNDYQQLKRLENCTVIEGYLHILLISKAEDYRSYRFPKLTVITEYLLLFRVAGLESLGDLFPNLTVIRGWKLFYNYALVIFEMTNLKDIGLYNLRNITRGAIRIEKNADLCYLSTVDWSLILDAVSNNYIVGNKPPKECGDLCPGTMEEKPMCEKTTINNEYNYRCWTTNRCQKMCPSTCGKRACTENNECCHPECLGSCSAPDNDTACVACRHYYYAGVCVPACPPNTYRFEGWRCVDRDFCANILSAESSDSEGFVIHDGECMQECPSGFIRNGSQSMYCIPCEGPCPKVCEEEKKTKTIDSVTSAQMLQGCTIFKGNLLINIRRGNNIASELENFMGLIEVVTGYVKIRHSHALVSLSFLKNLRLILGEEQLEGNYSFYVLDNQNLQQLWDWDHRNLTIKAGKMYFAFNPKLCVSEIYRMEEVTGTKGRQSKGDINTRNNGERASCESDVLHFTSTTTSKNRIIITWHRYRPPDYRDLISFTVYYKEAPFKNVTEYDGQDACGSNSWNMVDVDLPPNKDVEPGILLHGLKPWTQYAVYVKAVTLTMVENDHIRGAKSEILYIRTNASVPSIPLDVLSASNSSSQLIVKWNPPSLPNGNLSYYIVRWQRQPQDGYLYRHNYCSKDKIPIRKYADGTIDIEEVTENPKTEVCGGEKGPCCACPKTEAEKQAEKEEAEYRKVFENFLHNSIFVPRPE
- Sequence (P08069 741-1367 limits assumed): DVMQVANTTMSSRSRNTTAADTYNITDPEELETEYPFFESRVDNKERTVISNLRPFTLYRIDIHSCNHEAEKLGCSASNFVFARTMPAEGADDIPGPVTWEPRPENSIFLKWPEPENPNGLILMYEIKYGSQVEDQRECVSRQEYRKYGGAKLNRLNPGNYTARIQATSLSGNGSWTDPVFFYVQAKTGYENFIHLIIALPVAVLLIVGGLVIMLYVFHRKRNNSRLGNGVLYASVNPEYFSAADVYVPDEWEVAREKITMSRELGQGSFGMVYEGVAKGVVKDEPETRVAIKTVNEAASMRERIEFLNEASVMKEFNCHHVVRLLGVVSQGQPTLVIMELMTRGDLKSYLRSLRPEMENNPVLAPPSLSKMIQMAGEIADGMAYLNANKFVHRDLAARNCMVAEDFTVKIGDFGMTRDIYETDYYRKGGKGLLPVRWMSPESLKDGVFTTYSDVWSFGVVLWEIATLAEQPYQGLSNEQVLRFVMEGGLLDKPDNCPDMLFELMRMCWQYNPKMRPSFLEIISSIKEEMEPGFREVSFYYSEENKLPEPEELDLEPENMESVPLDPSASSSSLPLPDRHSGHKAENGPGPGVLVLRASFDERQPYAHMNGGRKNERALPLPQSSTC
- assayDetails: Inhibition of IGF-induced autophosphosphorylation of GST-tagged human IGF1R expressed in SF21 cells by time resolved-fluorescent assay
parameter: log10 IC50 (log10 of the value in nM)
Note the log scale: values are log10 of IC50 expressed in nM.

Known log10 IC50 results, listed for orientation:
# smilesString, parameter, valueObserved
data = [
    ("CCNc1cc(CN2C(=O)N(c3ccc(SC(F)(F)F)cc3)C(=O)C2(C)C)ccn1", "log10 IC50", 2.19),
    ("CCc1cc(CN2C(=O)N(c3ccc(SC(F)(F)F)cc3)C(=O)C2(C)C)ccn1", "log10 IC50", 2.76),
    ("CC1(C)C(=O)N(c2ccc(SC(F)(F)F)cc2)C(=O)N1Cc1ccnc(NC2CCCCC2)c1", "log10 IC50", 3.09),
    ("CC1(C)C(=O)N(c2ccc(SC(F)(F)F)cc2)C(=O)N1Cc1ccnc(C(N)=O)c1", "log10 IC50", 3.47),
    ("CC(C)(C)OC(=O)Nc1cc(CN2C(=O)N(c3ccc(SC(F)(F)F)cc3)C(=O)C2(C)C)ccn1", "log10 IC50", 2.89),
    ("CCOc1cc(CN2C(=O)N(c3ccc(SC(F)(F)F)cc3)C(=O)C2(C)C)ccn1", "log10 IC50", 3.27),
]

State its log10 IC50 on Insulin-like growth factor 1 receptor (Homo sapiens, UniProt P08069): COc1cc2c(-c3cc4cccnc4[nH]3)cn(C)c2cc1OC 1.74

----------
- assayDetails: AUC (0 to infinity) in BALB/c mouse at 10 mg/kg, po
- Format: ADME, organism-based
- Set-up: time infinity, dose 10 mg/kg, route oral
- runParameters: plasma
parameter: AUC(0-inf) (ng·h/mL)
Answers are plain numbers, in ng·h/mL.

Please give the measured AUC(0-inf) for this compound: C[C@H]1C(=O)N(c2ccc(S(=O)(=O)C(F)(F)F)cc2)C(=O)N1Cc1ccnc2ccccc12 13200

----------
- assayDetails: Cmax in BALB/c mouse plasma at 10 mg/kg, po upto 24 hrs
- Type: ADME, organism-based
- Design: dose 10 mg/kg, route oral
parameter: Cmax (ng/mL)
Give bare numbers, in ng/mL.

Request the reported Cmax associated with C[C@H]1C(=O)N(c2ccc(S(=O)(=O)C(F)(F)F)cc2)C(=O)N1Cc1ccnc2ccccc12 1490

----------
Could you please report measured log10 IC50 for the items listed next?
- targetOfAssay: Insulin-like growth factor 1 receptor (Homo sapiens, UniProt P08069)
- assayDetails: Inhibition of autophosphosphorylation of human IGF1R expressed in IGF1-stimulated MCF7 cells by ELISA
- Format: cell-based
Response schema: value (number) is log10 of IC50 in units of nM.

Would you please look over these solved cases?
# smilesString, log10 IC50
data = [
    ("CCNc1cc(CN2C(=O)N(c3ccc(SC(F)(F)F)cc3)C(=O)C2(C)C)ccn1", 1.67),
    ("CC1(C)C(=O)N(c2ccc(SC(F)(F)F)cc2)C(=O)N1Cc1ccncc1", 2.07),
    ("CC1(C)C(=O)N(c2ccc(SC(F)(F)F)cc2)C(=O)N1Cc1ccnc(N)c1", 1.53),
    ("COc1cc2c(-c3cc4cccnc4[nH]3)cn(C)c2cc1OC", 2.16),
]

Alright, here's another molecule for you.
Value lookup for log10 IC50; key = CC(=O)Nc1cc(CN2C(=O)N(c3ccc(SC(F)(F)F)cc3)C(=O)C2(C)C)ccn1 0.85

----------
- assayDetails: Metabolic stability in human microsomes assessed as compound remaining after 15 mins
- Type: ADME, Microsome
- runParameters: read-out: Stability
parameter: remaining at 0.25 h (%)
Numbers only, in %.

# input molecule: C[C@H]1C(=O)N(c2ccc(S(=O)(=O)C(F)(F)F)cc2)C(=O)N1Cc1ccnc2ccccc12 ; wanted: its remaining at 0.25 h 82

----------
Please respond with reported IC50 for every item in the list.
- targetOfAssay: Insulin-like growth factor 1 receptor (Homo sapiens)
- assayDetails: Inhibition of IGF-induced autophosphosphorylation of GST-tagged human IGF1R expressed in SF21 cells by time resolved-fluorescent assay

Some solved entries appear below for comparison.
# smilesString, IC50
rows = [
    ("C[C@H]1C(=O)N(c2ccc(S(=O)(=O)C(F)(F)F)cc2)C(=O)N1CC1CCNCC1", "> 100 µM"),
    ("C[C@H]1C(=O)N(c2ccc(S(=O)(=O)C(F)(F)F)cc2)C(=O)N1Cc1cc[n+]([O-])c2ccccc12", "> 100 µM"),
    ("C[C@H]1C(=O)N(c2ccc(S(=O)(=O)C(F)(F)F)cc2)C(=O)N1Cc1c[nH]cn1", "> 100 µM"),
]

# batch: return IC50 for each of the 2 compounds below
1. C[C@H]1C(=O)N(c2ccc(S(=O)(=O)C(F)(F)F)cc2)C(=O)N1Cc1ccccn1
2. CC1(C)C(=O)N(c2ccc(SC(F)(F)F)cc2)C(=O)N1Cc1ccnc(Cl)c1

1: > 100 µM; 2: 0.995 µM

----------
- targetOfAssay: Cytochrome P450 2D6 (Homo sapiens, UniProt P10635)
- Sequence (P10635 whole entry): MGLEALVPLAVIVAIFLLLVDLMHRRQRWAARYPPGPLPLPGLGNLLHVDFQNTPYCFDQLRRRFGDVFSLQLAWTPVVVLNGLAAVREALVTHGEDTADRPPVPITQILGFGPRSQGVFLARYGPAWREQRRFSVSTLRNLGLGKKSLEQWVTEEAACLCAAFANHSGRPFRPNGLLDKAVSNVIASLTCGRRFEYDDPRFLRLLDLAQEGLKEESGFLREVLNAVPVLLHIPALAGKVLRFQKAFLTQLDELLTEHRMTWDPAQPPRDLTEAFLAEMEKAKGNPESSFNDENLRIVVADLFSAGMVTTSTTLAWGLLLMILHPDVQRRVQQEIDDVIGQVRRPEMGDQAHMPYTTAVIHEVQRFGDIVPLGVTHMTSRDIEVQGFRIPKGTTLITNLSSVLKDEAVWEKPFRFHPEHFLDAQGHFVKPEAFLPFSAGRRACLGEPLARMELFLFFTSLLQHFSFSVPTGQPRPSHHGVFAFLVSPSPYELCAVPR
parameter: IC50

Field request: IC50 | item: C[C@H]1C(=O)N(c2ccc(S(=O)(=O)C(F)(F)F)cc2)C(=O)N1Cc1ccnc2ccccc12 > 15 µM

----------
- targetOfAssay: Insulin receptor (Homo sapiens, UniProt P06213)
- Sequence (P06213 28-758 limits assumed): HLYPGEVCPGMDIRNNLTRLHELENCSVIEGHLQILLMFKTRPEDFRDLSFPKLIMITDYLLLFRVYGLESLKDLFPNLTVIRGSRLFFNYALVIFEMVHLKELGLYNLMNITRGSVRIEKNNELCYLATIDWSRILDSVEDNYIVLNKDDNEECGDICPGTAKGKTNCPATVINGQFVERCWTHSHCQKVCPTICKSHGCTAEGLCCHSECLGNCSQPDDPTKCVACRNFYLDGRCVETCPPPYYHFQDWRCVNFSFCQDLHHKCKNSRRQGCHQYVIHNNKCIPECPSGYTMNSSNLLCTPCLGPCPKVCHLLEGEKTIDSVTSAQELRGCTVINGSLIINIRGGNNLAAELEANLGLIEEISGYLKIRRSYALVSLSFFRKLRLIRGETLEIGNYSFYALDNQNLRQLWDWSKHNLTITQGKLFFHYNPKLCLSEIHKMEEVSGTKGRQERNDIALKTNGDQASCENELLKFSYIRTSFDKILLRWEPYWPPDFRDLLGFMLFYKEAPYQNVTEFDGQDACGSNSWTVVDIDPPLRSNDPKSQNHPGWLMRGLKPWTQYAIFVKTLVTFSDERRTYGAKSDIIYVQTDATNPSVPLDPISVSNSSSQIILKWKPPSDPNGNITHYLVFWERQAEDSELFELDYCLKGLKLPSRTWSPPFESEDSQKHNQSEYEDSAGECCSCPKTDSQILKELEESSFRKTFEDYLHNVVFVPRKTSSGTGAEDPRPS
- Sequence (P06213 763-1382 limits assumed): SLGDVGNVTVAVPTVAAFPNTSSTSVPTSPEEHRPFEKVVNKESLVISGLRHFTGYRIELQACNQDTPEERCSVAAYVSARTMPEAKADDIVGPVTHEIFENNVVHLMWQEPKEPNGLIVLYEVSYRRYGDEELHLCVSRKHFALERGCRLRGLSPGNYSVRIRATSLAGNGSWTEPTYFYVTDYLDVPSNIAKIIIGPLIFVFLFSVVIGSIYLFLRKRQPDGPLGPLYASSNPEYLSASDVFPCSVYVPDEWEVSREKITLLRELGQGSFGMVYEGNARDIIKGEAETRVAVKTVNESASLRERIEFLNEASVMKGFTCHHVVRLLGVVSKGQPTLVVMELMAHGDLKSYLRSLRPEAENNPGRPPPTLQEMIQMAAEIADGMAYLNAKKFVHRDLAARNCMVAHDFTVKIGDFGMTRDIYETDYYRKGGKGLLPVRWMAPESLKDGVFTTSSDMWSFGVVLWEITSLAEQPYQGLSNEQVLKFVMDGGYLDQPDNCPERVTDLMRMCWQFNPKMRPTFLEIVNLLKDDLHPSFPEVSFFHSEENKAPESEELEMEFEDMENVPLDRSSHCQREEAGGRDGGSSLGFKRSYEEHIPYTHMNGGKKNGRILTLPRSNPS
parameter: pIC50
Give bare numbers, as −log10 of the molar value.

Given the molecule C[C@H]1C(=O)N(c2ccc(S(=O)(=O)C(F)(F)F)cc2)C(=O)N1Cc1ccnc2ccccc12 , what is its reported pIC50? 6.52

----------
- assayDetails: Metabolic stability in mouse liver microsomes assessed as compound remaining after 15 mins
parameter: remaining at 0.25 h
A complete answer gives the number followed by the unit.

Can you look up the measured remaining at 0.25 h of C[C@H]1C(=O)N(c2ccc(S(=O)(=O)C(F)(F)F)cc2)C(=O)N1Cc1ccnc2ccccc12 for me? 83%

----------
- targetOfAssay: UniProt P08069
- assayDetails: Inhibition of IGF-induced autophosphosphorylation of GST-tagged human IGF1R expressed in baculovirus-SF21 cell system preincubated for 60 mins by time resolved-fluorescent assay
parameter: pIC50
Answers are plain numbers, as −log10 of the molar value.

# smilesString, valueObserved
records = [
    ("COc1cc2c(-c3cc4cccnc4[nH]3)cn(C)c2cc1OC", 7.46),
]

Shifting focus to the compound that follows.
Fill in: pIC50 of CC(=O)Nc1cc(CN2C(=O)N(c3ccc(SC(F)(F)F)cc3)C(=O)C2(C)C)ccn1 is ___ 8.15

----------
- targetOfAssay: Cytochrome P450 3A4 (Homo sapiens, UniProt P08684)
- Sequence (P08684 whole entry): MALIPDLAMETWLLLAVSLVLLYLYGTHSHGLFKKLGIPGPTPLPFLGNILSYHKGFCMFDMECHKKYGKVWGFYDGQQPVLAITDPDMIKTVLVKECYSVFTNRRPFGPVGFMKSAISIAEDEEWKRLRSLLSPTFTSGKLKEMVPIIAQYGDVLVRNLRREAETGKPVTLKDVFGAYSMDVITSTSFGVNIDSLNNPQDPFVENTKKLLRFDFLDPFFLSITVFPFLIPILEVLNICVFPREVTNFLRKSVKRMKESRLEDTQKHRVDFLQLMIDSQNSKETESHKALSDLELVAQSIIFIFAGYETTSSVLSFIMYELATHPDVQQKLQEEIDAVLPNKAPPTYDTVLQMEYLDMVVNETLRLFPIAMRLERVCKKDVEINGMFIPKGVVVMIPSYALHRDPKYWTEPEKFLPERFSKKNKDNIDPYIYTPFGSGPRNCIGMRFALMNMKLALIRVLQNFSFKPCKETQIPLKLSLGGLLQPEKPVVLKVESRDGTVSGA
parameter: IC50

Which value of IC50 has been reported for C[C@H]1C(=O)N(c2ccc(S(=O)(=O)C(F)(F)F)cc2)C(=O)N1Cc1ccnc2ccccc12 in the records? > 15 µM

----------
Consider the following compounds; for each one, report its pIC50.
- targetOfAssay: Insulin-like growth factor 1 receptor (Homo sapiens, UniProt P08069)
- assayDetails: Inhibition of autophosphosphorylation of human IGF1R expressed in IGF1-stimulated MCF7 cells preincubated for 60 mins by ELISA
- Assay type: cell-based
One number for each entry, as −log10 of the molar value.

# smilesString, targetOfAssay, parameter, valueObserved
measured = [
    ("COc1cc2c(-c3cc4cccnc4[nH]3)cn(C)c2cc1OC", "Insulin-like growth factor 1 receptor (Homo sapiens, UniProt P08069)", "pIC50", 6.74),
]

Proceed to the following item.
Quick one: pIC50 for CC(=O)Nc1cc(CN2C(=O)N(c3ccc(SC(F)(F)F)cc3)C(=O)C2(C)C)ccn1 ? 8.15

----------
- targetOfAssay: Cytochrome P450 2C19 (Homo sapiens)
- Sequence (P33261 whole entry): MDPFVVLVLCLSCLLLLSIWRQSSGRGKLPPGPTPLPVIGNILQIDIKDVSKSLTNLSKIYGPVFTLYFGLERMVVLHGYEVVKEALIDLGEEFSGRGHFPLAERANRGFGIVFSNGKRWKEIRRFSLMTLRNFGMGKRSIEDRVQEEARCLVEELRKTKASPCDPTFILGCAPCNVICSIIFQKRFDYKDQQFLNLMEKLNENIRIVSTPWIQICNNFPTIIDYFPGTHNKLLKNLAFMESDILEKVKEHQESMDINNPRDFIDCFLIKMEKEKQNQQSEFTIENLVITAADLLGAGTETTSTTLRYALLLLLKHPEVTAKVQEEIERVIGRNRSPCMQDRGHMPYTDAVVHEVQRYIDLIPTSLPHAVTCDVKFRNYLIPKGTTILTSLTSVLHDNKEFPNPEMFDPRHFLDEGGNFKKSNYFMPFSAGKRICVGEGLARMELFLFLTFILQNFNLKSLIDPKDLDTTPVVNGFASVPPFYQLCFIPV
- assayDetails: Inhibition of CYP2C19
- Assay type: ADME
parameter: IC50

For the compound shown here, C[C@H]1C(=O)N(c2ccc(S(=O)(=O)C(F)(F)F)cc2)C(=O)N1Cc1ccnc2ccccc12 , give the reported IC50. > 15 µM

----------
- targetOfAssay: Insulin-like growth factor 1 receptor (Homo sapiens, UniProt P08069)
- assayDetails: Inhibition of IGF-induced autophosphosphorylation of GST-tagged human IGF1R expressed in SF21 cells by time resolved-fluorescent assay
Exercise: for every item that follows, state its recorded log10 of IC50.
For clarity, the numbers are log10 values of IC50 expressed in nM.

Known log10 of IC50 results, listed for orientation:
# smilesString, log10 of IC50
records = [
    ("CC(C)Nc1cc(CN2C(=O)N(c3ccc(SC(F)(F)F)cc3)C(=O)C2(C)C)ccn1", 2.66),
    ("CC1(C)C(=O)N(c2ccc(SC(F)(F)F)cc2)C(=O)N1Cc1ccncc1", 2.42),
    ("CN(C)c1cc(CN2C(=O)N(c3ccc(SC(F)(F)F)cc3)C(=O)C2(C)C)ccn1", 3.65),
    ("COc1ccc(CNc2cc(CN3C(=O)N(c4ccc(SC(F)(F)F)cc4)C(=O)C3(C)C)ccn2)cc1", 3.04),
    ("CC1(C)C(=O)N(c2ccc(S(=O)(=O)C(F)(F)F)cc2)C(=O)N1Cc1ccnc2ccccc12", 2.66),
]

Could I get log10 of IC50 for every one of these entries?
1. CC1(C)C(=O)N(c2ccc(SC(F)(F)F)cc2)C(=O)N1Cc1ccnc(Nc2ccccc2)c1
2. C[C@H]1C(=O)N(c2ccc(S(=O)(=O)C(F)(F)F)cc2)C(=O)N1Cc1ccncc1

1: 3.03; 2: 3.20
